The reported measurements were obtained from paper PMC7666158.

systemUnderTest: pp-p38 (double-phosphorylated, activated p38α) (human) (UniProt Q16539)
Sequence (Q16539 whole entry): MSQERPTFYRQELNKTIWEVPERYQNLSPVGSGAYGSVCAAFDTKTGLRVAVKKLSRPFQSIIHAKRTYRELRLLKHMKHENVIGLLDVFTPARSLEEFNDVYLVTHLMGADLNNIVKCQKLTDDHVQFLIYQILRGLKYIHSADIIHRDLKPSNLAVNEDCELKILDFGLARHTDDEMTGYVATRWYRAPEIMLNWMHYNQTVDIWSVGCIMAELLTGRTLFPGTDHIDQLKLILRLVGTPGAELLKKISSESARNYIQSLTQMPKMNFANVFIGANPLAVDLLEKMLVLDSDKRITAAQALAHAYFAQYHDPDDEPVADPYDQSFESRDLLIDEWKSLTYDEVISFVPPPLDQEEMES
measurementNotes: competition in an in vitro kinase assay; 2 nM pp-p38, 2 µM MBP-ATF2 substrate, 3-fold dilution series of peptide from 1 mM; phospho-ATF2 dot blot; Ki = IC50/(1 + S/KM), KM 17.3 µM
propertyLabel: Ki (µM)

substance	systemUnderTest	reportedMeasurement
SPFENEF peptide (ATF2 83–102) phospho-S90	pp-p38 (double-phosphorylated, activated p38α) (human) (UniProt Q16539)	820

[P] SPFENEF peptide (ATF2 83–102) S90N (from UniProt P15336-1 83-102)
[Q] SPFENEF peptide (ATF2 83–102), WT
Enquiry: # returns the entry with the larger Ki; inputs P and Q Select an item and report its label.
Return: Q
